- TARGET OR SYSTEM: Diaphorase
- MEASUREMENT NOTES: peptide array, 10 uM labeled diaphorase, with FAD
PROPERTY LABEL: fluorescence

Known fluorescence results, listed for orientation:
// query For the binder "RLQYLFKSDGSG" , report fluorescence.
// result 30600

// query Answer with the recorded fluorescence of "YSALFGLQEDGSG" only.
// result 16900

// query Supply measured fluorescence of "RYPWNKLYKFDGSG" in your reply.
// result 53000

(P) PRYQNFGGGSG
(Q) RYNLYKPSDGSG
(R) RYAYFQHLGGSG
(S) EDEGLSKFEGGSG
// query Ordering criterion: fluorescence; begin with the maximum. # the answer lists labels in the order requested
// result R, P, Q, S
